Where do these numbers come from? They come from patent US20070117743A1.

tested on: HeLa; test: SRB colorimetric assay of cell growth and viability, HeLa; format: cell-based, human; settings: 48 hours exposure, SRB; read-out: LC50 HELA
Where a SMILES comes first, the peptide text is derived from it. Bridges are numbered along the chain shown (N, C = ends). [ ]: non-standard residue; d: D form. The star is where a group is joined. d(aIle) = CC[C@H](C)[C@@H](N)C(=O)O; d(aThr) = C[C@@H](O)[C@@H](N)C(=O)O; Hexanoyl(5-Me) = CC(C)CCCC(=O)*; Orn = NCCC[C@H](N)C(=O)O; Dhb = C/C=C(\N)C(=O)O
endpointName: CC50 (nM)

INSERT INTO assay_data (compound, testresult) VALUES
  ('C/C=C1\NC(=O)[C@H](Cc2ccc(Cl)c(Cl)c2)NC(=O)[C@@H](C(C)C)NC(=O)[C@@H]([C@@H](C)CC)NC(=O)[C@H](NC(=O)[C@H](NC(=O)[C@H](CCCN)NC(=O)[C@H]2CCCN2C(=O)[C@H](NC(=O)[C@@H](NC(=O)[C@@H](NC(=O)[C@H](NC(=O)CC[C@@H](C)CC)C(C)C)[C@@H](C)O)C(C)C)C(C)C)[C@@H](C)CC)[C@@H](C)OC(=O)[C@H](C(C)C)NC1=O [Compound 70, [Phe(3,4-Cl2)^3, (4S)-MeHex^14]-KF]', 397),
  ('C/C=C1\NC(=O)[C@H](Cc2c[nH]c3ccccc23)NC(=O)[C@@H](C(C)C)NC(=O)[C@@H]([C@@H](C)CC)NC(=O)[C@H](NC(=O)[C@H](NC(=O)[C@H](CCCN)NC(=O)[C@H]2CCCN2C(=O)[C@H](NC(=O)[C@@H](NC(=O)[C@@H](NC(=O)[C@H](NC(=O)CCCC(C)C)C(C)C)[C@@H](C)O)C(C)C)C(C)C)[C@@H](C)CC)[C@@H](C)OC(=O)[C@H](C(C)C)NC1=O [Compound 68, [Trp^3]-KF] ({Hexanoyl(5-Me)}-[dV]TV[dV][dP][Orn][d(aIle)][d(aThr)][d(aIle)][dV]W[Dhb]V; ester 8-C)', 4040);

---

test system: IGROV-1; assay: SRB colorimetric assay of cell growth and viability, IGROV-1; assay type: cell-based, human; details: 48 hours exposure
Reported LC50 (concentration causing 50% net cell killing) values for the following molecules.
endpointName: LC50 (concentration causing 50% net cell killing) (µM)

INSERT INTO results (molecule, testresult) VALUES
  ('C/C=C1\NC(=O)[C@H](Cc2ccccc2)NC(=O)[C@@H](C(C)C)NC(=O)[C@@H]([C@@H](C)CC)NC(=O)[C@H](NC(=O)[C@H](NC(=O)[C@H](CCCN)NC(=O)[C@H]2CCCN2C(=O)[C@H](NC(=O)[C@@H](NC(=O)[C@@H](NC(=O)[C@H](NC(=O)CC[C@H](C)CC)C(C)C)[C@@H](C)O)C(C)C)C(C)C)[C@@H](C)CC)[C@@H](C)OC(=O)[C@H](C(C)C)NC1=O [Compound 16, [(4R)-MeHex^14]-KF]', 3.5),
  ('C/C=C1\NC(=O)[C@H](Cc2ccccc2)NC(=O)[C@@H](C(C)C)NC(=O)[C@@H]([C@@H](C)CC)NC(=O)[C@H](NC(=O)[C@H](NC(=O)[C@H](CCCN)NC(=O)[C@H]2CCCN2C(=O)[C@H](NC(=O)[C@@H](NC(=O)[C@@H](NC(=O)[C@H](NC(=O)c2ccccc2)C(C)C)[C@@H](C)O)C(C)C)C(C)C)[C@@H](C)CC)[C@@H](C)OC(=O)[C@H](C(C)C)NC1=O [Compound 20, [Bza^14]-KF]', 4.2),
  ('C/C=C1\NC(=O)[C@H](Cc2ccccc2)NC(=O)[C@@H](C(C)C)NC(=O)[C@@H]([C@@H](C)CC)NC(=O)[C@H](NC(=O)[C@H](NC(=O)[C@H](CCCN)NC(=O)[C@H]2CCCN2C(=O)[C@H](NC(=O)[C@@H](NC(=O)[C@@H](NC(=O)[C@H](NC(=O)Cc2cc(F)cc(F)c2)C(C)C)[C@@H](C)O)C(C)C)C(C)C)[C@@H](C)CC)[C@@H](C)OC(=O)[C@H](C(C)C)NC1=O [Compound 22, [3,5-dFPhAc^14]-KF]', 4.57);
